# Test system: pigweed
# EXPERIMENT NOTES: Test B pre/postemergence pigweed
# Type: in vivo, Amaranthus retroflexus
# CONDITION LABEL: Preemergence, Rate 250 g/ha; scale of 0 to 10 where 0 is no effect and 10 is complete control
ASSAY READOUT: Redroot pigweed plant response rating
# respond with the number and nothing more

# MOLECULE, REPORTED
records = [
    ("CC(C)N(C(=O)n1oc(=O)n(-c2ccc3ccccc3c2)c1=O)c1ccc(F)cc1F", 0),
    ("Cc1c(-n2c(=O)on(C(=O)N(c3ccc(F)cc3)C(C)C)c2=O)ccc2ccccc12", 0),
    ("CC(C)C(C)n1c(=O)on(C(=O)N(c2ccc(F)cc2)C(C)C)c1=O (stereo not shown)", 10),
    ("CC(C)N(C(=O)n1oc(=O)n(CC(=O)OC(C)(C)C)c1=O)c1ccc(F)cc1", 0),
    ("CC(C)N(C(=O)n1oc(=O)n(C(C)C(=O)c2ccccc2)c1=O)c1ccc(F)cc1 (stereo not shown)", 4),
]

Exercise: Reported Redroot pigweed plant response rating, molecule "CC(C)N(C(=O)n1oc(=O)n(CC2CC2)c1=O)c1ccc(F)cc1" : ____
Key: 10

Exercise: Reported Redroot pigweed plant response rating, molecule "CC(C)N(C(=O)n1oc(=O)n(C2CCCCCC2)c1=O)c1ccc(Cl)cc1" : ____
Key: 0

Exercise: Reported Redroot pigweed plant response rating, molecule "CC(C)N(C(=O)n1oc(=O)n(CC2(C)COC2)c1=O)c1ccc(F)cc1" : ____
Key: 7

Exercise: Reported Redroot pigweed plant response rating, molecule "CC(C)N(C(=O)n1oc(=O)n(C2CCC2)c1=O)c1ccc(Cl)cc1" : ____
Key: 2

Exercise: Reported Redroot pigweed plant response rating, molecule "Cc1ccccc1-n1c(=O)on(C(=O)N(c2ccc(C(C)(C)C)cc2)C(C)C)c1=O" : ____
Key: 0

----------
Listed here are molecules together with their documented B. signalgrass plant response rating.
# System: surinam grass
# EXPERIMENT NOTES: Test B pre/postemergence surinam grass
# Assay type: in vivo, Brachiaria decumbens
# CONDITION LABEL: Rate 125 g/ha; Postemergence; scale 0 to 10, 0 no effect, 10 complete control

Exercise: Reported B. signalgrass plant response rating, molecule Cc1ccccc1-n1c(=O)on(C(=O)N(C2=CCOCC2)C(C)C)c1=O [Compound 10] : ____
Key: 0

Exercise: Reported B. signalgrass plant response rating, molecule Cc1ccccc1Cn1c(=O)on(C(=O)N(c2ccc(F)cc2)C(C)C)c1=O [Compound 88] : ____
Key: 2

Exercise: Reported B. signalgrass plant response rating, molecule CCN(C(=O)n1oc(=O)n(-c2c(C)cc(C)cc2C)c1=O)C1CCCCC1 [Compound 63] : ____
Key: 0

Exercise: Reported B. signalgrass plant response rating, molecule CCN(CC)C(=O)n1oc(=O)n(-c2ccc(OC)cc2)c1=O [Compound 1] : ____
Key: 0

Exercise: Reported B. signalgrass plant response rating, molecule CC(C)N(C(=O)n1oc(=O)n(C2CCCCC2)c1=O)c1ccc(Cl)cc1 [Compound 111] : ____
Key: 0

Exercise: Reported B. signalgrass plant response rating, molecule COc1ccc(-n2c(=O)on(C(=O)N(c3ccc(F)cc3)C(C)C)c2=O)c(C)c1 [Compound 35] : ____
Key: 0

Exercise: Reported B. signalgrass plant response rating, molecule CCN(C(=O)n1oc(=O)n(-c2ccc(C)cc2C)c1=O)C1CCCCC1 [Compound 26] : ____
Key: 0

----------
# Tested on: sugar beet
# EXPERIMENT NOTES: Test B pre/postemergence sugar beet
# Type: in vivo, Beta vulgaris
# CONDITION LABEL: Rate 250 g/ha, Postemergence; scale 0 to 10, 0 is no effect, 10 is complete control
Listed here are molecules together with their documented Plant response rating, Sugarbeets.
# respond with the number and nothing more

Exercise: Reported Plant response rating, Sugarbeets, molecule CCc1noc(CC)c1-n1c(=O)on(C(=O)N(c2ccc(F)cc2)C(C)C)c1=O [Compound 102] : ____
Key: 0

Exercise: Reported Plant response rating, Sugarbeets, molecule CC1CCCCC1n1c(=O)on(C(=O)N(c2ccc(F)cc2F)C(C)C)c1=O (centres unmarked) [Compound 172] : ____
Key: 0

Exercise: Reported Plant response rating, Sugarbeets, molecule CC(C)N(C(=O)n1oc(=O)n(CC(F)(F)F)c1=O)c1ccc(F)cc1 [Compound 163] : ____
Key: 4

Exercise: Reported Plant response rating, Sugarbeets, molecule Cc1noc(C)c1-n1c(=O)on(C(=O)N(c2ccc(F)cc2)C(C)C)c1=O [Compound 155] : ____
Key: 0

Exercise: Reported Plant response rating, Sugarbeets, molecule CCCn1c(=O)on(C(=O)N(c2ccc(Cl)cc2)C(C)C)c1=O [Compound 119] : ____
Key: 0

----------
# System: soybean
# EXPERIMENT NOTES: Test B pre/postemergence soybean
# Format: in vivo, Glycine max
# CONDITION LABEL: Rate 62 g/ha, Postemergence; scale 0 to 10 (0 no effect, 10 complete control)
ASSAY READOUT: Soybean plant response rating
# respond with the number and nothing more

Exercise: Reported Soybean plant response rating, compound CC(C)N(C(=O)n1oc(=O)n(CC2=NOCCC2)c1=O)c1ccc(Cl)cc1 [Compound 450] : ____
Key: 1

Exercise: Reported Soybean plant response rating, compound CC(C)N(C(=O)n1oc(=O)n(CCCF)c1=O)c1ccc(F)cc1 [Compound 287] : ____
Key: 1

Exercise: Reported Soybean plant response rating, compound CC(C)C(=O)Cn1c(=O)on(C(=O)N(c2ccc(Cl)cc2)C(C)C)c1=O [Compound 487] : ____
Key: 3

----------
# Tested on: giant foxtail
# EXPERIMENT NOTES: Test B pre/postemergence giant foxtail
# Format: in vivo, Setaria faberii
# CONDITION LABEL: Rate 500 g/ha, Preemergence; scale 0 to 10 (0 no effect, 10 complete control)
Listed here are compounds together with their documented Giant foxtail plant response rating.

Some entries whose results are on file:
# COMPOUND, TARGET DESC, ASSAY READOUT, REPORTED
rows = [
    ("COCC(OC)n1c(=O)on(C(=O)N(c2ccc(Cl)cc2)C(C)C)c1=O (stereo not shown) [Compound 726]", "giant foxtail", "Giant foxtail plant response rating", 10),
    ("C#CCCn1c(=O)on(C(=O)N(c2ccc(F)cc2F)C(C)C)c1=O [Compound 744]", "giant foxtail", "Giant foxtail plant response rating", 10),
]

Exercise: Reported Giant foxtail plant response rating, compound CCOC(CC)n1c(=O)on(C(=O)N(c2ccc(Cl)cc2)C(C)C)c1=O (stereo not shown) [Compound 772] : ____
Key: 0

Exercise: Reported Giant foxtail plant response rating, compound CC(C)N(C(=O)n1oc(=O)n(CCC(=O)N(C)C)c1=O)c1ccc(Cl)cc1 [Compound 719] : ____
Key: 10

----------
Listed here are molecules together with their documented Bedstraw plant response rating.
# Test system: bedstraw
# EXPERIMENT NOTES: Test B pre/postemergence bedstraw
# Format: in vivo, Galium aparine
# CONDITION LABEL: Postemergence, Rate 62 g/ha; scale 0 to 10, 0 is no effect, 10 is complete control

# SAMPLE SMILES, TARGET DESC, Bedstraw plant response rating
data = [
    ("COc1ccc(-n2c(=O)on(C(=O)N(c3ccc(F)cc3)C(C)C)c2=O)c(C)c1", "bedstraw", 0),
    ("CCN(CC)C(=O)n1oc(=O)n(-c2cccc3c2CCCC3)c1=O", "bedstraw", 0),
    ("Cc1ccccc1-n1c(=O)on(C(=O)N(c2ccc(F)cc2)C(C)C)c1=O", "bedstraw", 0),
    ("CCN(C(=O)n1oc(=O)n(-c2c(C)cc(C)cc2C)c1=O)C1CCCCC1", "bedstraw", 0),
    ("CC(C)N(C(=O)n1oc(=O)n(C2CCCCC2)c1=O)c1ccc(Cl)cc1", "bedstraw", 5),
    ("Cc1ccccc1-n1c(=O)on(C(=O)N(C2=CCOCC2)C(C)C)c1=O", "bedstraw", 0),
]

Exercise: Query for bedstraw: what Bedstraw plant response rating does the record show for "CC(C)N(C(=O)n1oc(=O)n(C2CCCCC2)c1=O)c1ccc(F)cc1" ?
Key: 2

Exercise: Query for bedstraw: what Bedstraw plant response rating does the record show for "Cc1cccc(C)c1-n1c(=O)on(C(=O)N(c2ccccc2)C(C)C)c1=O" ?
Key: 0

Exercise: Query for bedstraw: what Bedstraw plant response rating does the record show for "Cc1ccccc1-n1c(=O)on(C(=O)N(c2ccc(Cl)cc2)C(C)C)c1=O" ?
Key: 0

Exercise: Query for bedstraw: what Bedstraw plant response rating does the record show for "CCc1ccccc1-n1c(=O)on(C(=O)N(c2ccc(F)cc2F)C(C)C)c1=O" ?
Key: 3
